# Protocol: Components of the Cytosolic LPS Sensing Pathway: Gene Identification via Genome-wide siRNA Screen;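 further: robust z of the log signal after scaling to non-targeting control siRNA wells of the plate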
# Test Settings: RAW264.7 macrophages, IL-1a HTRF, actives lie on both sides, screened at 100 nM (by protocol), cells primed 5 h with Pam3CSK4 first
Among all 53,000 sequences or so, about 3,700 (7%) were called active. The entries come from a sample that favours actives as a whole.
Measure: z-score

[[record]]
residues = "CGUUUCAGAGUGUUUGUGGTT against Lgalsl"
val = -0.173

[[record]]
residues = "GGGAAAUUUACAGAAAGUGTT against Igtp"
val = 0.956

[[record]]
residues = "GGAGGCAGCUCCUAUGAUGTT against Rbm28"
val = 0.378

[[record]]
residues = "GCGGUAUGAGAAGGUUCCATT against Rap2a"
val = 3.48

[[record]]
residues = "GGUGGCUCUCCAAGUUCUATT against Uchl4"
val = -0.279

[[record]]
residues = "GGGAGAACCAGCACAACAUTT against Cavin2"
val = -1.8

[[record]]
residues = "GGAGAAAUUCAAACAAGUATT against 4930503B20Rik"
val = 0.275

[[record]]
residues = "GGCACGAGGCAGAAUUUUATT against Kctd3"
val = 0.696

[[record]]
residues = "GGUAGAAUCCGGUUACCACTT against Tox"
val = 0.704

[[record]]
residues = "GGUACUGGACCAAAUUGCUTT against Ppp1r15b"
val = 2.26

[[record]]
residues = "CCAGUGGUCAUUCUUGUCUTT against Olfr1076"
val = 0.314

[[record]]
residues = "GGAUCAAUGGUGUCUUUGUTT against Pdzk1"
val = -2.2

[[record]]
residues = "GGAUUUAUCCCAAAAUCUATT against Tmem26"
val = 0.42

[[record]]
residues = "GGGACAGAAAGGAAAGACUTT against Ndufb4"
val = 0.0331

[[record]]
residues = "GGCAAAGUGUCCCUCCGAATT against Skint7"
val = 2.06

[[record]]
residues = "CCGGAAAUUUCUGAUGGAGTT against Eif4ebp1"
val = 2.19

[[record]]
residues = "CCCAAUUCCUUAACUAUUATT against Cd209a"
val = 1.02

[[record]]
residues = "GGAGGUGGUGUUUAUACCATT against Scrn2"
val = 0.728

[[record]]
residues = "GGAGGUGGUACAAUACACCTT against Gsg1"
val = 2.86

[[record]]
residues = "GGAGUUUGAACAAGAAAUATT against Prss12"
val = 1.11

[[record]]
residues = "GGCAAAUAUUUCCAAGUACTT against Cpq"
val = -1.57

[[record]]
residues = "GCGGUUUCUUACCAAUAACTT against Cyp1a2"
val = 0.984

[[record]]
residues = "GGAACUGAUAAACUACUCUTT against Olfr1126"
val = -2.08

[[record]]
residues = "GGUUGCAUUGUAGGGUUGGTT against Olfr129"
val = 0.221

[[record]]
residues = "GCUAGUUAAUGGUAACAUATT against Sult1d1"
val = -1.68


* * *

Overview of recorded z-score for various sequences
# Protocol: Components of the Cytosolic LPS Sensing Pathway: Gene Identification via Genome-wide siRNA Screen;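 further: robust z of the log signal after scaling to non-targeting control siRNA wells of the plate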
# Test Settings: RAW264.7 macrophages, IL-1a HTRF, actives lie on both sides, screened at 100 nM (by protocol), cells primed 5 h with Pam3CSK4 first
Out of some 53,000 sequences screened, about 3,700 (7%) were called active. The full list was thinned out, with actives kept by preference.
Measure: z-score

[[record]]
residues = "GGAAGAUGGAGAUCAGACGTT against Foxd4"
measure = "z-score"
val = -0.498

[[record]]
residues = "CGCCAAUUCAUCGUUGACUTT against Ccl3"
measure = "z-score"
val = 0.773

[[record]]
residues = "GCUACUUCGGGAAUUUUACTT against Ttc21a"
measure = "z-score"
val = -1.16

[[record]]
residues = "CGGUGAUCAAUCAUUGUAATT against Tas2r113"
measure = "z-score"
val = -2.16

[[record]]
residues = "GGAGUAUUACGUCUGAUAUTT against Nrxn1"
measure = "z-score"
val = 2.39

[[record]]
residues = "GGGUUUGGUCUCAUAUAAATT against Samd7"
measure = "z-score"
val = -0.618

[[record]]
residues = "GGCCACAAAGACUCUGUGATT against Aamp"
measure = "z-score"
val = -2.25

[[record]]
residues = "CCUCACCAGGUAAAUUUUUTT against Ro60"
measure = "z-score"
val = -1.25

[[record]]
residues = "GGAGAGUCAAGUCUUUUCUTT against Dnal4"
measure = "z-score"
val = 0.0546

[[record]]
residues = "GCAAAUAGGGAGGUUCCUGTT against Ypel1"
measure = "z-score"
val = 1.47

[[record]]
residues = "GCACCAUUAAGGUUGCCAATT against Nudt11"
measure = "z-score"
val = -1.16

[[record]]
residues = "GGAUAAGGUAGAAUUACUGTT against Slc26a4"
measure = "z-score"
val = 3.06

[[record]]
residues = "GGUCAAUCUUUGGAGUAUUTT against Stk39"
measure = "z-score"
val = -0.129

[[record]]
residues = "GGGUUCUCAAGGUUGCAUUTT against Frs3"
measure = "z-score"
val = 1.15

[[record]]
residues = "CGAUUUCACAAAAACAUGATT against Vta1"
measure = "z-score"
val = -0.394

[[record]]
residues = "GGAAGUCAAGAAAGUGGCCTT against H1f0"
measure = "z-score"
val = -0.294

[[record]]
residues = "GGGAAACUCUCAGAUGAAGTT against Sh2d7"
measure = "z-score"
val = -1.9

[[record]]
residues = "CCCAUACUGUCACUUUAAGTT against H2bc8"
measure = "z-score"
val = -2.23

[[record]]
residues = "GGAAGAAGAAAGAUUCAAATT against Bcan"
measure = "z-score"
val = -0.862

[[record]]
residues = "GGUGCUAAUGACCUUUGAATT against Dbp"
measure = "z-score"
val = -1.5

[[record]]
residues = "CCAAGUAGAUAGGAAUUAUTT against Eps8"
measure = "z-score"
val = 2

[[record]]
residues = "GGAGAAGACUUGUAACAAATT against Hacd4"
measure = "z-score"
val = 5.28

[[record]]
residues = "GGCUUAAGUGUGCAGCUACTT against B3gnt4"
measure = "z-score"
val = -0.479

[[record]]
residues = "GGCAGACUCUGCCUACUUATT against Utf1"
measure = "z-score"
val = 1.01

[[record]]
residues = "GGUCAUCUCAGACCUCCUCTT against Pde6a"
measure = "z-score"
val = -0.275

[[record]]
residues = "CCUCAUCCAACAUACCUAUTT against Olfr665"
measure = "z-score"
val = -0.665


* * *

# Protocol: Components of the Cytosolic LPS Sensing Pathway: Gene Identification via Genome-wide siRNA Screen;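 further: robust z of the log signal after scaling to non-targeting control siRNA wells of the plate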
# Test Settings: RAW264.7 macrophages, IL-1a HTRF, actives lie on both sides, screened at 100 nM (by protocol), cells primed 5 h with Pam3CSK4 first
About 3,700 (7%) of roughly 53,000 sequences were called active.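 How the source made its calls: active means gene knockdowns whose robust z-score for IL-1 alpha signal is at least 2 or at most -2, so actives lie on both sides; inactive means the rest.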 Only a selection was taken, and actives are over-represented in it overall.
Labels: active, inactive

[[record]]
residues = "GGAAUGAUUUUUGUUUGCUTT against Sf3b3"
assigned_class = "inactive"

[[record]]
residues = "GGCAGUGCUGGCAACAAAUTT against Hsd3b5"
assigned_class = "inactive"

[[record]]
residues = "CCGGGUAGUGAGUAAGCUUTT against Neu2"
assigned_class = "active"

[[record]]
residues = "GGAAGUGCUGAAGGUGUACTT against Spire2"
assigned_class = "active"

[[record]]
residues = "GGUGAUGGCUGUUCCUUUCTT against Zdhhc2"
assigned_class = "inactive"

[[record]]
residues = "CCUCAAGGAACUGAAUGCCTT against Olfr1320"
assigned_class = "inactive"


* * *

# Protocol: Components of the Cytosolic LPS Sensing Pathway: Gene Identification via Genome-wide siRNA Screen;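 further: robust z of the log signal after scaling to non-targeting control siRNA wells of the plate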
# Test Settings: RAW264.7 macrophages, IL-1a HTRF, actives lie on both sides, screened at 100 nM (by protocol), cells primed 5 h with Pam3CSK4 first
Out of some 53,000 sequences screened, about 3,700 (7%) were called active. This is one part of a sample in which actives are shown more often than they occur.
Recorded z-score for the following sequences
Measure: z-score

[[record]]
residues = "GGAAGAAUGUAAGUAUACCTT against Zscan12"
measure = "z-score"
val = 1.68

[[record]]
residues = "GGAACCUACCUCACCUUUGTT against Fscn3"
measure = "z-score"
val = -0.749

[[record]]
residues = "GGUGAUUCACAUAACAGGCTT against Npas3"
measure = "z-score"
val = 2.05

[[record]]
residues = "GGAAAGAUUUAUUUUGACGTT against Vnn3"
measure = "z-score"
val = 0.286

[[record]]
residues = "GGUUUUAGAAUUCUGGACGTT against Plppr2"
measure = "z-score"
val = 0.243

[[record]]
residues = "GCCUGACGAAGGUUUCUAUTT against Neo1"
measure = "z-score"
val = -0.114

[[record]]
residues = "GCUAGGUAUACAGCCAAAGTT against Spryd4"
measure = "z-score"
val = -0.699

[[record]]
residues = "GCUCUUGUUAUUUACGUCGTT against Lgi1"
measure = "z-score"
val = 0.478

[[record]]
residues = "GGCCGUGUUAUCCAGAUUGTT against Prkcd"
measure = "z-score"
val = 1.43

[[record]]
residues = "GGAGUUCAGGUAUCCCUGATT against Nomo1"
measure = "z-score"
val = -0.109

[[record]]
residues = "UGAAGGCAAAUCACUCUUUTT against Olfr181"
measure = "z-score"
val = -0.042

[[record]]
residues = "GGCAGUUAUUCAGAAUUGATT against Nfu1"
measure = "z-score"
val = -2.2

[[record]]
residues = "CCUCGUAUUAGAUGAUGCATT against Snrpe"
measure = "z-score"
val = -2.79

[[record]]
residues = "GGUGUACAUGGACAUCAAGTT against Ppie"
measure = "z-score"
val = 0.0171

[[record]]
residues = "CCAUUACAGGGUUUUUUAUTT against Slc37a3"
measure = "z-score"
val = -0.62

[[record]]
residues = "GCUUCAAUAACUGCGCAAGTT against Zkscan2"
measure = "z-score"
val = 0.547

[[record]]
residues = "GGUGACAUAUUUGAAGUGGTT against Dmwd"
measure = "z-score"
val = -0.000303

[[record]]
residues = "GGCUGUAUCCUGACAGCAATT against Olfr231"
measure = "z-score"
val = 0.213

[[record]]
residues = "GGCGGACAGAAAUUAUAGATT against Tnpo3"
measure = "z-score"
val = 3.19

[[record]]
residues = "GGAAUGCUGAAGUAAAAAATT against Olfr1259"
measure = "z-score"
val = -0.808

[[record]]
residues = "GGUUAACCUGAGAAAAAUGTT against Mkrn1"
measure = "z-score"
val = 0.734

[[record]]
residues = "GGGACAAUUCAGGAUGGAGTT against Ift88"
measure = "z-score"
val = 0.0559

[[record]]
residues = "GGAGAUUGGCUUCCAGAAATT against Slc38a7"
measure = "z-score"
val = 0.494

[[record]]
residues = "GGUUUUUAACCAAACAUGATT against Actr3"
measure = "z-score"
val = -0.784

[[record]]
residues = "GGACCACCUAAGUUUAAGCTT against Pde6g"
measure = "z-score"
val = -0.557

[[record]]
residues = "CCGUUGAUAUCCACAUGAATT against Plod3"
measure = "z-score"
val = 1.97

[[record]]
residues = "GGGACUCGAGUUUCAUCUATT against Casc1"
measure = "z-score"
val = 0.768

[[record]]
residues = "GGCAAUGGAAGUUGGAACATT against Ptch1"
measure = "z-score"
val = -2.15

[[record]]
residues = "GGUCUUCAAGAACUGUAGCTT against Bcl11b"
measure = "z-score"
val = 1.09

[[record]]
residues = "GGCCUAUUGUAAAAACCCATT against Taf1b"
measure = "z-score"
val = -2.56

[[record]]
residues = "GGAUUCAGAAGCAGCAACATT against Nr1h2"
measure = "z-score"
val = -2.29

[[record]]
residues = "GGAGGAGAUGAUGAAUUUUTT against Etf1"
measure = "z-score"
val = 0.965

[[record]]
residues = "GGACUAUCCUCACUCCCUUTT against Pigo"
measure = "z-score"
val = -0.0578

[[record]]
residues = "GCCCGUCCUGUUUGGAUUATT against Wdr53"
measure = "z-score"
val = 0.501

[[record]]
residues = "CCCAGCACAUGCUAUCUCUTT against Zbtb21"
measure = "z-score"
val = -2.6

[[record]]
residues = "GCAUCACUUACAGAUAGACTT against Olfr305"
measure = "z-score"
val = -1.21

[[record]]
residues = "GUACCUCUACUAUUCCUUUTT against Krtap5-2"
measure = "z-score"
val = -0.13

[[record]]
residues = "GGCCCAUAAUUAAAUGUUUTT against Stac2"
measure = "z-score"
val = 0.438

[[record]]
residues = "GAGUAGGAAUUAGAAUGAUTT against Tmem47"
measure = "z-score"
val = -0.00808

[[record]]
residues = "GGAAAAACUGAGAAAACUUTT against Lyrm1"
measure = "z-score"
val = -2.41

[[record]]
residues = "CCUUCUAGACACCAUACCCTT against Pidd1"
measure = "z-score"
val = 0.259

[[record]]
residues = "CCUGCUAUACAUUGAACCCTT against Lhcgr"
measure = "z-score"
val = 2.52

[[record]]
residues = "CCAGUGCAGGACCUCAUUUTT against Sod1"
measure = "z-score"
val = -2.06

[[record]]
residues = "GCCAUUAAAGGUAACACUGTT against Tmbim7"
measure = "z-score"
val = 0.0423

[[record]]
residues = "CCUUGAUACCUUUCCAUGUTT against 9130008F23Rik"
measure = "z-score"
val = -0.68

[[record]]
residues = "GCGGCAGAUCUUCGAUUUCTT against Nkain1"
measure = "z-score"
val = 0.168

[[record]]
residues = "GGUAUUUGUAAAUUUGAGGTT against Atl1"
measure = "z-score"
val = 0.309

[[record]]
residues = "GGCCUUCAGUCAAGCAUCATT against Myom1"
measure = "z-score"
val = 0.906

[[record]]
residues = "GGAUGAAGAUGGAGACAUGTT against Lmx1b"
measure = "z-score"
val = -2.58

[[record]]
residues = "GGACAAGAGGUACACAAACTT against Eif3d"
measure = "z-score"
val = 2.83

